Where these numbers come from: patent US9849193B2

- Method: Heat-induced release of drug surrogate (alcohol 11 or amine 12) from linkers in methanol, HPLC quantification
- Type: physicochemical
- Condition Summary: release of alcohol 11; methanol ca. 0.01 M, 55° C., 0.5 h; mean ± SD, n = 3
Reported Metric: % release after heating (55° C.) at time (h) 0.5 (%)

The following molecules have reported results that may help.
# Molecule, Quantitative Result
rows = [
    ("C=CCNCCCC(=O)OCCc1c2ccccc2cc2ccccc12 [Compound 4.1]", 29.2),
    ("C=CCNCCCOC(=O)OCCc1c2ccccc2cc2ccccc12 [Compound 8.2]", 14.1),
    ("C=CCNCCCCCC(=O)OCCc1c2ccccc2cc2ccccc12 [Compound 4.3]", 1.8),
    ("C=CCNCCC(C)(C)COC(=O)OCCc1c2ccccc2cc2ccccc12 [Compound 23]", 2.3),
    ("C=CCNCCCCC(=O)OCCc1c2ccccc2cc2ccccc12 [Compound 4.2]", 21.6),
]

P. C=CCNCCC(C)(C)CCC(=O)OCCc1c2ccccc2cc2ccccc12 [Compound 20]
Q. C=CCNCCOC(=O)OCCc1c2ccccc2cc2ccccc12 [Compound 8.1]
Inquiry: From the recorded data, which exceeds the other in % release after heating (55° C.) at time (h) 0.5: P or Q ? Lab log: write the label of the selected item as the result.
Reply text: Q

====

- Method: Heat-induced release of drug surrogate (alcohol 11 or amine 12) from linkers in methanol, HPLC quantification
- Type: physicochemical
- Condition Summary: release of alcohol 11; room temperature control, 3.5 h; mean ± SD, n = 3
Reported Metric: % release at rt, 3.5 h (%)

The following compounds have reported results that may help.
# Test Smiles, % release at rt, 3.5 h / %
measured = [
    ("C=CCNCCCOC(=O)OCCc1c2ccccc2cc2ccccc12", 9.6),
    ("C=CCNCCCCCC(=O)OCCc1c2ccccc2cc2ccccc12", 1.7),
    ("C=CCNCCC(C)(C)COC(=O)OCCc1c2ccccc2cc2ccccc12", 0.7),
    ("C=CCNCCOC(=O)OCCc1c2ccccc2cc2ccccc12", 18.8),
    ("C=CCNCCCCC(=O)OCCc1c2ccccc2cc2ccccc12", 17.0),
]

P. C=CCNCCCC(=O)OCCc1c2ccccc2cc2ccccc12
Q. C=CCNCCC(C)(C)CCC(=O)OCCc1c2ccccc2cc2ccccc12
Inquiry: From the recorded data, which exceeds the other in % release at rt, 3.5 h: P or Q ? Lab log: write the label of the selected item as the result.
Reply text: P
